These data points were gathered from patent US20200255503A1.

Test target: T1, Fel d1 (B-A)-mmH (cat (Felis domesticus))
T1 construct: Expressed in CHO cells; also called rFel d1.mmH; rFel d1-mmH
T1 sequence (chain, as listed by the source limits assumed): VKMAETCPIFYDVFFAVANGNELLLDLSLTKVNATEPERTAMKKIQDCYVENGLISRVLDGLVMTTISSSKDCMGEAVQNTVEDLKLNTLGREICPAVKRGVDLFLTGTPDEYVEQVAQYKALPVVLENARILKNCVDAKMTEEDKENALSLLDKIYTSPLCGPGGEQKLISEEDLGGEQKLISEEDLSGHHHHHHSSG
Assay text: SPR, mAb captured, Fel d1 (B-A)-mmH injected, 25 C;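 note: rate constants obtained by fitting sensorgrams to a one-to-one binding model, Kd computed as koff over kon, half-life derived from koff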
Recorded kon values for a group of binders are listed next.
The response must be a number in M⁻¹ s⁻¹ with no trailing unit.

The value of kon measured for the binder H4H2636P (antibody, human IgG4, V domains shown, human IgG4 Fc (prefix H4H); also called REGN1909) VH: EVQLVESGGGLVQPGGSLRLSCAASGFTFSSYAMSWVRQAPGKGLEWVSAISGRGYNADYADSVKGRFTISRDNSKNTLYLQMNSLRAEDTAVYYCAKLEYFDYWGQGTLVTVSS VL: DIQMTQSPSTLSASVGDRVTITCRASQSISSWLAWYQQKPGKAPKLLIYKASSLESGVPSRFSGSGSGTDFTLTISSLRPEDFATYYCQQYNSYPLTFGGGTKVEIK turned out to be 257000

Lab book: kon of H4H2594S (antibody, human IgG4, V domains shown, human IgG4 Fc (prefix H4H)) VH: EVQLVESGGGLVKPGGSLRLSCAASGFTFSDYYMNWIRQAPGKGLEWVSYISSSGSSIYYADSVKGRFTISRDNAKNSLYLLMNSLRAEDTAVYYCARDGKYNSSPGDYWGQGTLVTVSS VL: DIQMTQSPSSLSASVGDRVTIACRASQGISNYLAWFQQKPGKAPKSLIYAASSLQSGVPSKFSGSGSGTDFTLTISSLQPEDFATYYCQQYNSYPLTFGGGTKVEIKR noted as 1.3e+06

Lab note: measured kon of H2M1237N (antibody, mouse IgG2, V domains shown, chimeric, human variable domains with mouse IgG2 Fc (prefix H2M)) VH: QVVLVESGGGVVQPGRSLRLSCAASGFTFSSYGMHWVRQAPGKGLEWVAVIWYDGSIKYYADSVKGRFTISRDNSNNTIYLQMNSLRAEDTAVYYCARALIPVAGTDPIFGYWGQGTLVTVSS VL: DIQMTQSPSTLSASVGDRVTITCRASQSVSSWLAWYQQKPGKAPKLLIFKTSGLESGVPFRFSGSGSGTEFTLTISSLQPDDFATYYCQQYNTYSPTFGQGTKVEIK was 359000

// sample H4H2607B (antibody, human IgG4, V domains shown, human IgG4 Fc (prefix H4H)) VH: EVQLVESGGGLVKPGGSLRLSCAASGFTFSDYYMNWIRQAPGKGLEWISYLSSSGSATYYADSVKGRFTISRDNAKNSLYLQMNSLRAEDTAVYYCARDGKYNTVAGDYWGQGTTVTVSS VL: DIQLTQSPSSLSASVGDRVTITCRASQGIRNDLGWYQQKPGKAPKRLIYAASSLQSGVPSRFSGSGSGTEFTLTISSLQPEDFATYYCLQHNSYPYTFGQGTKVEIKR , its kon was 1.55e+06

The value of kon measured for the binder H4H2636B (antibody, human IgG4, V domains shown, human IgG4 Fc (prefix H4H)) VH: EVQLVESGGGLVQPGGSLRLSCAASGFTFSSYAMSWVRQAPGKGLEWVSAISGRGYNADYADSVKGRFTISRDNSKNTLYLQMNSLRAEDTAVYYCAKLEYFDYWGQGTTVTVSS VL: DIQLTQSPSTLSASVGDRVTITCRASQSISSWLAWYQQKPGKAPKLLIYKASSLESGVPSRFSGSGSGTDFTLTISSLRPEDFATYYCQQYNSYPLTFGGGTKVEIKR turned out to be 247000

Just so you know, measured kon for H4H2606B (antibody, human IgG4, V domains shown, human IgG4 Fc (prefix H4H)) VH: EVQLVESGGGLVKPGGSLRLSCAASGFTFSDYYMNWIRQAPGKGLEWVSYISSSGNSIYYADSVKGRFTISRDNAKNSLFLQMSSLRAEDTAVYYCARDGRYNDRRRGYYWGQGTLVTVSS VL: EIVMTQSPDFQSVTPKEKVTITCRASQSIGSSLHWYQQKPDQSPKLLIKYASQSFSGVPSRFSGSGSGTDFTLTINSLEAEDAATYYCLQSSSLRTFGQGTKVEIKR came out at 1.26e+06

binder H4H2597B (antibody, human IgG4, V domains shown, human IgG4 Fc (prefix H4H)) VH: EVQLVESGGGLVQPGGSLRLSCAVSGFTFSNYAMNWVRQAPGKGLEWVSVISDSGRSTYYADSVKGRFTISRDNSKNTLYLQMNSLRAEDTAVYFCAKRYNWNLHYFDYWGQGTTVTVSS VL: EIVLTQSPDFQSVTPKEKVTITCRASQSIGGSLHWYQQKPDQSPKLLIKYASQSFSGVPSRFSGSGSGTDFTLTINSLEAEDAATYYCLQSSSLRTFGQGTKVEIKR , kon observed: 1.12e+06

# kon of H2M1233N (antibody, mouse IgG2, V domains shown, chimeric, human variable domains with mouse IgG2 Fc (prefix H2M)) VH: QVVLVESGGGVVQPGRSLRLSCAASGFTFSSYGMHWVRQAPGKGLEWVAVIWYDGSNKYYVDSVKGRFTISRDNSNNTIYLQMNSLRAEDTAVYYCARSLIPVAGTDPIFGYWGQGTLVTVSS VL: DIQMTQSPSTLSASVGDRVTITCRASQSVSSWLAWYQQKPGKAPKLLIFKASGLESGVPFRFSGSGSGTEFTLTISSLQPDDFATYYCQQYNTYSPTFGQGTKVEIK = 305000

So for H4H2797P (antibody, human IgG4, V domains shown, human IgG4 Fc (prefix H4H)) VH: QVQLVESGGGVVLPGRSLRLSCAASGFTFSSYLMYWVRQAPGKGLEWVAVIWYDGSNKFYGDSVKGRFTISRDNSKNTLYLQMNSLRAEDTAVYYCARDNGNSGYEDSWNAFDIWGQGTMVTVSS VL: DIQMTQSPSSLSASVGDRVTITCRASQDIYNYLAWFQQKPGKAPKSLIYAASSLQTGVPSQFSGSGSGTDFTLTISSLQPEDFATYYCQQYNNYPFTFGPGTKVDIK , the logged kon turned out to be 437000

Per the records, this binder ( H4H2645P (antibody, human IgG4, V domains shown, human IgG4 Fc (prefix H4H)) VH: EVQLVESGGGLVQPGGSLRLSCAASGFTFSTYAMHWVRQAPGKGLEWVSSISGRGRNSDHADSVKGRFTISRDNSKNTLYLQMNSLRAEDTAVYYCARTEYFHHWGQGTLVTVSS VL: DIQMTQSPSSLSASVGDRITITCRASQDINNYLAWFQQKPGKAPKSLIYGASSLQSGVPSKFSGSGSGTDFTLTISSLQPEDFATYYCQQYSSYPFTFGPGTKVDIK ) has kon equal to 487000
